- assayDetails: in vivo
- settings: Balb/c nu/nu, mouse, bone, 48 pmol, total radioactivity
measuredMetric: tissue uptake at 2 h (%ID/g)
Report as a plain number; the unit %ID/g is understood.

Query: Provide tissue uptake at 2 h value for the following molecule: CC1=NNC(c2ccc(CNC(=O)c3ccc(F)nc3)cc2)=C2CCC[C@H](OC(=O)NCCOCCOCCC(=O)N[C@H](Cc3ccccc3)C(=O)N[C@@H](CCC(N)=O)C(=O)N[C@@H](Cc3c[nH]c4ccccc34)C(=O)N[C@@H](C)C(=O)N[C@H](C(=O)NCC(=O)N[C@@H](Cc3c[nH]cn3)C(=O)N[C@@H](CC(C)C)[C@@H](O)CC(=O)N[C@@H](CC(C)C)C(N)=O)C(C)C)CCC12 (stereo partly shown) [8a]
Result: 0.6

====

- assayDetails: in vivo
- settings: Balb/c nu/nu, mouse, tumour / liver, 48 pmol, total radioactivity
measuredMetric: tissue to tissue ratio at 2 h
Provide a numeric answer; units are not to be included.

Query: Provide tissue to tissue ratio at 2 h value for the following compound: CC1=NNC(c2ccc(CNC(=O)c3ccc(F)nc3)cc2)=C2CCC[C@H](OC(=O)NCCOCCOCCC(=O)N[C@H](Cc3ccccc3)C(=O)N[C@@H](CCC(N)=O)C(=O)N[C@@H](Cc3c[nH]c4ccccc34)C(=O)N[C@@H](C)C(=O)N[C@H](C(=O)NCC(=O)N[C@@H](Cc3c[nH]cn3)C(=O)N[C@@H](CC(C)C)[C@@H](O)CC(=O)N[C@@H](CC(C)C)C(N)=O)C(C)C)CCC12 (stereo partly shown)
Result: 0.4

====

- assayDetails: in vivo
- settings: Balb/c nu/nu, mouse, tumour / bone, 48 pmol, total radioactivity
measuredMetric: tissue to tissue ratio at 1 h
Provide a numeric answer; units are not to be included.

Query: Provide tissue to tissue ratio at 1 h value for the following compound: CC1=NNC(c2ccc(CNC(=O)c3ccc(F)nc3)cc2)=C2CCC[C@H](OC(=O)NCCOCCOCCC(=O)N[C@H](Cc3ccccc3)C(=O)N[C@@H](CCC(N)=O)C(=O)N[C@@H](Cc3c[nH]c4ccccc34)C(=O)N[C@@H](C)C(=O)N[C@H](C(=O)NCC(=O)N[C@@H](Cc3c[nH]cn3)C(=O)N[C@@H](CC(C)C)[C@@H](O)CC(=O)N[C@@H](CC(C)C)C(N)=O)C(C)C)CCC12 (stereo partly shown)
Result: 3.2

====

- assayDetails: in vivo
- settings: Balb/c nu/nu, mouse, tumour / blood, 48 pmol, total radioactivity
measuredMetric: tissue to tissue ratio at 2 h
Provide a numeric answer; units are not to be included.

Query: Provide tissue to tissue ratio at 2 h value for the following compound: CC1=NNC(c2ccc(CNC(=O)c3ccc(F)nc3)cc2)=C2CCC[C@H](OC(=O)NCCOCCOCCC(=O)N[C@H](Cc3ccccc3)C(=O)N[C@@H](CCC(N)=O)C(=O)N[C@@H](Cc3c[nH]c4ccccc34)C(=O)N[C@@H](C)C(=O)N[C@H](C(=O)NCC(=O)N[C@@H](Cc3c[nH]cn3)C(=O)N[C@@H](CC(C)C)[C@@H](O)CC(=O)N[C@@H](CC(C)C)C(N)=O)C(C)C)CCC12 (stereo partly shown)
Result: 1.5

====

- assayDetails: in vivo
- settings: Balb/c nu/nu, mouse, muscle, 48 pmol, total radioactivity
measuredMetric: tissue uptake at 2 h (%ID/g)
Report as a plain number; the unit %ID/g is understood.

Query: Provide tissue uptake at 2 h value for the following compound: CC1=NNC(c2ccc(CNC(=O)c3ccc(F)nc3)cc2)=C2CCC[C@H](OC(=O)NCCOCCOCCC(=O)N[C@H](Cc3ccccc3)C(=O)N[C@@H](CCC(N)=O)C(=O)N[C@@H](Cc3c[nH]c4ccccc34)C(=O)N[C@@H](C)C(=O)N[C@H](C(=O)NCC(=O)N[C@@H](Cc3c[nH]cn3)C(=O)N[C@@H](CC(C)C)[C@@H](O)CC(=O)N[C@@H](CC(C)C)C(N)=O)C(C)C)CCC12 (stereo partly shown) [8a]
Result: 0.3
